target-or-system: Tau40 P301L protein (human)
experiment-description: cell-based or functional assay
Square brackets hold non-standard residues; d marks the D form. Ends that are not written are not given here.
Response field label takes satisfied when IC50, Tau40 assay (ThT) is strictly below 2000 nM and not satisfied in all other cases.

binder: [dL][dR][dI][dR][dI][dH][dY][dH] [lririhyh (PEPTIDE ID NO: 239)]
class-name: satisfied
--
binder: [dF][dE][dI][dR][dI][dH][dY][dH] [feirihyh (PEPTIDE ID NO: 442)]
class-name: not satisfied
--
binder: [dL][dK][dI][dR][dI][dH][dY][dR] [lkirihyr (PEPTIDE ID NO: 291)]
class-name: satisfied
--
binder: [dL][dA][dI][dR][dI][dH][dY][dH] [lairihyh (PEPTIDE ID NO: 309)]
class-name: not satisfied
--
binder: [dW][dR][dL][dE][dV][dR][dW] [wrlevrw (PEPTIDE ID NO: 315)]
class-name: not satisfied

Please turn your attention to the following entry.
Does the reported IC50, Tau40 assay (ThT) of [dH][dW][dR][dL][dK][dV][dR][dW] [hwrlkvrw (PEPTIDE ID NO: 266)] stay below 2000 nM? satisfied
